Taken from patent US7956077B2.

Reported log10 of EC50 is given for each of the following compounds.
Target: human PPARalpha (Homo sapiens, UniProt Q07869)
Construct: human PPARalpha receptor (amino acids S167-Y468)
Sequence (Q07869 167-468): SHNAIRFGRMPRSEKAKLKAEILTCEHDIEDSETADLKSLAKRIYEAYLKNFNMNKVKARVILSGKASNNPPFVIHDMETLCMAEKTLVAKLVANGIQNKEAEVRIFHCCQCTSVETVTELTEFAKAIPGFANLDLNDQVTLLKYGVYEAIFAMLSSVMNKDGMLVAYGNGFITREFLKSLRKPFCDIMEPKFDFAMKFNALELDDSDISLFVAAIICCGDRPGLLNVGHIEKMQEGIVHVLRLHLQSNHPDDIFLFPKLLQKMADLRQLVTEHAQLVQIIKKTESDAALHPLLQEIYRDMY
Experiment: Cellular PPARalpha assay (stably transfected HEK luciferase reporter cell line)
Settings: PPARalpha reporter cell line (HEK, GR-GAL4-humanPPARalpha-LBD), 24 h incubation
Procedure: Determination of EC50 Values of PPAR Agonists in the Cellular PPARalpha Assay The potency of substances which bind to human PPARalpha and activate it in an agonistic manner is analyzed using a stably transfected HEK cell line (HEK=human embryo kidney) which is referred to here as PPARalpha reporter cell line. […] The luciferase which is formed can be detected by means of chemiluminescence via an appropriate substrate. […]
Form field - Quantity: EC50; Unit: nM; Scale: log10

Some compounds with known log10 of EC50 results, for comparison:
[
  {
    "compound": "CCc1oc(-c2ccc(C)cc2)nc1CO[C@H]1CCC[C@@H](COC(C)(Cc2ccccc2)C(=O)O)C1 (mixture of isomers)",
    "test target": "human PPARalpha (Homo sapiens, UniProt Q07869)",
    "value kind": "log10 of EC50",
    "assay value": -0.80
  },
  {
    "compound": "CCc1oc(-c2ccc(CC(C)C)cc2)nc1CO[C@H]1CCC[C@@H](COC(C)(C)C(=O)O)C1",
    "test target": "human PPARalpha (Homo sapiens, UniProt Q07869)",
    "value kind": "log10 of EC50",
    "assay value": 1.28
  },
  {
    "compound": "CCCC(C)(OC[C@@H]1CCC[C@H](OCc2nc(-c3cccc(OC)c3)oc2CC)C1)C(=O)O (mixture of isomers)",
    "test target": "human PPARalpha (Homo sapiens, UniProt Q07869)",
    "value kind": "log10 of EC50",
    "assay value": 1.73
  }
]

Requested field: log10 of EC50. Item: CCc1oc(-c2cccc(OC)c2)nc1CO[C@H]1CCC[C@@H](COC(C)(C)C(=O)O)C1
1.65

Requested field: log10 of EC50. Item: Cc1oc(-c2ccc(F)cc2)nc1COC1CCCC(COC(C)(C)C(=O)O)C1 (stereo not shown)
0.65

Requested field: log10 of EC50. Item: CCc1oc(-c2ccc3ccccc3c2)nc1CO[C@H]1CCC[C@@H](COC(C)(C)C(=O)O)C1
0.30

Requested field: log10 of EC50. Item: CCc1oc(-c2ccc(C)cc2)nc1CO[C@H]1CCC[C@@H](COC(C)(C)C(=O)O)C1
0.54

Requested field: log10 of EC50. Item: CCc1oc(-c2cccc(C(F)(F)F)c2)nc1CO[C@H]1CCC[C@@H](COC(C)(C)C(=O)O)C1
1.08

Requested field: log10 of EC50. Item: CCCC(C)(OC[C@@H]1CCC[C@H](OCc2nc(-c3ccc(C)cc3)oc2CC)C1)C(=O)O (mixture of isomers)
0.61

Requested field: log10 of EC50. Item: CCc1oc(-c2ccc3ccccc3c2)nc1CO[C@H]1CCC[C@@H](COC(C)(Cc2ccccc2)C(=O)O)C1 (mixture of isomers)
-0.42
